# assay procedure: qHTS profiling for inhibitors of Plasmodium falciparum proliferation (AID 504749);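 further: 0% = DMSO vehicle and full inhibition = artemisinin control; nearly all actives have a fitted effect of over 60% in size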
# test parameters: P. falciparum in erythrocytes, SYBR Green DNA, 72 h; at 12.8 µM (top of the series); parasite line B
Inconclusive results are not listed. Active and inactive are the calls of the source. The call rests on the fitted dose curve; in most records, active means well fitted inhibition curve with a large enough effect; inconclusive means small, poorly fitted or top-dose-only effect; inactive means flat fitted curve, though single readings scatter.
endpoint name: activity, negative = inhibition

[[record]]
smiles_representation = "CCc1cccc(CC)c1NC(=O)CN(CC(=O)O)CC(=O)O"
endpoint_name = "activity, negative = inhibition"
experimental_result = "6.7% (inactive)"

[[record]]
smiles_representation = "NC(N)=NS(=O)(=O)c1ccc(N)cc1"
endpoint_name = "activity, negative = inhibition"
experimental_result = "8.43% (inactive)"

[[record]]
smiles_representation = "COc1ccc(NS(=O)(=O)c2ccc(N)cc2)nn1"
endpoint_name = "activity, negative = inhibition"
experimental_result = "13.5% (inactive)"

[[record]]
smiles_representation = "CC(C)(C)C(=O)OCOC(=O)[C@@H]1N2C(=O)[C@@H](NC(=O)[C@H](N)c3ccccc3)[C@H]2SC1(C)C"
endpoint_name = "activity, negative = inhibition"
experimental_result = "-15.3% (inactive)"

[[record]]
smiles_representation = "CCN(CC)CCc1nc(-c2ccccc2)no1"
endpoint_name = "activity, negative = inhibition"
experimental_result = "-5.26% (inactive)"

[[record]]
smiles_representation = "CCS(=O)(=O)CCn1c([N+](=O)[O-])cnc1C"
endpoint_name = "activity, negative = inhibition"
experimental_result = "-11.1% (inactive)"

[[record]]
smiles_representation = "NCc1ccc(S(N)(=O)=O)cc1"
endpoint_name = "activity, negative = inhibition"
experimental_result = "11% (inactive)"

[[record]]
smiles_representation = "Cc1c(NC(=O)c2cccnc2)c(=O)n(-c2ccccc2)n1C"
endpoint_name = "activity, negative = inhibition"
experimental_result = "5.39% (inactive)"

